Give measured pEC50 for each item. Keep answers brief.
Target: Histamine H3 receptor (Homo sapiens, UniProt Q9Y5N1)
Sequence (Q9Y5N1 whole entry): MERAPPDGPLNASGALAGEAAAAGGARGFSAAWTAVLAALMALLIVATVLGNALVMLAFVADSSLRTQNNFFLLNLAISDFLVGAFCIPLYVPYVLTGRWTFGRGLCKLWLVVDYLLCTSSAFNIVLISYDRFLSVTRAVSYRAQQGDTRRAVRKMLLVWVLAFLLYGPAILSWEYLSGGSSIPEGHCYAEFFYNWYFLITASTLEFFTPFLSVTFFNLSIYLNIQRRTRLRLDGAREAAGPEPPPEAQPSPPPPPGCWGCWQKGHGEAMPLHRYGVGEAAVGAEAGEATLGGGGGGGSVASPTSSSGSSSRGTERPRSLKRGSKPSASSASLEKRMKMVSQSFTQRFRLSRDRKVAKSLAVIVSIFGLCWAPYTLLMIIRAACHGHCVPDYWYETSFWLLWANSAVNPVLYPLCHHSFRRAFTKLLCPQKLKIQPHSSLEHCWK
Assay: Effective concentration required against human histamine H3 receptor was determined by the inhibition of the cAMP stimulated beta-galactosidase transcription in SK-N-MC cells
Give bare numbers, as −log10 of the molar value.

Guide cases for pEC50, answers given:
Reported pEC50 of CN1CCN(C(=O)c2cc3cc(Cl)ccc3[nH]2)CC1 : 6.00

Per the record, CN1CCN(C(=O)c2cc3cc(I)ccc3[nH]2)CC1 has pEC50 of 5.50

Field pEC50 (entry CN1CCN(C(=O)c2cc3cc(Br)ccc3[nH]2)CC1 ) reads 5.80

Summary for this compound, CN1CCC(C(O)c2cc3cc(Cl)ccc3[nH]2)CC1 (stereo not drawn) : pEC50 is 6.00

Quick request: pEC50 for each listed item, please.
1. CN1CCC(C(=O)c2cc3cc(Cl)ccc3[nH]2)CC1
2. CN(C)CCNC(=O)c1nc2cc(Cl)ccc2[nH]1
3. CN1CCN(C(=O)c2nc3cc(Cl)ccc3[nH]2)CC1
4. O=C(c1cc2cc(Cl)ccc2[nH]1)N1CCCCC1

1: 6.00; 2: 5.50; 3: 5.50; 4: 5.50

---

Biological target: Histamine H3 receptor (Homo sapiens, UniProt Q9Y5N1)
Test: Intrinsic activity against human histamine H3 receptor
Please go through the items and note down their Intrinsic activity.
Numbers only.

Intrinsic activity in this record for CN1CCN(C(=O)c2cc3cc(I)ccc3[nH]2)CC1 : -0.8

Measured Intrinsic activity, CN1CCC(C(O)c2cc3cc(Cl)ccc3[nH]2)CC1 (stereo not drawn) : -0.5

***
Intrinsic activity for O=C(c1cc2cc(Cl)ccc2[nH]1)N1CCCCC1 is -0.6

---

pKi data for Histamine H3 receptor (Homo sapiens) follow.
One number for each entry, as −log10 of the molar value.

Would you mind giving pKi for every compound in the list below?
1. CN1CCN(C(=O)c2cc3cc(I)ccc3[nH]2)CC1
2. CN1CCN(C(=O)c2nc3cc(Cl)ccc3[nH]2)CC1
3. O=C(c1cc2cc(Cl)ccc2[nH]1)N1CCCCC1
4. CN1CCN(C(=O)c2cc3cc(Cl)ccc3[nH]2)CC1

1: 5.60; 2: 5.40; 3: 5.20; 4: 5.70

---

So I've got pKi readings for Histamine H4 receptor (Homo sapiens, UniProt Q9H3N8), take a look.
Answers are plain numbers, as −log10 of the molar value.

Input CN1CCC(C(O)c2cc3cc(Cl)ccc3[nH]2)CC1 (stereo not given) . Output pKi: 5.30

For each listed entry, give its pKi.
1. CN1CCN(C(=O)c2nc3cc(Cl)ccc3[nH]2)CC1
2. CN(C)CCN(C)C(=O)c1cc2cc(Cl)ccc2[nH]1
3. CN1CCN(C(=O)Nc2nc3cc(Cl)ccc3[nH]2)CC1

1: 7.10; 2: 4.60; 3: 4.70

---

Molecular target: UniProt Q9Y5N1
Assay: Intrinsic activity against human histamine H3 receptor
Please respond with reported Intrinsic activity for every item in the list.
Numbers only.

The examples below pair each entry with its known result.
Summary for this compound, CN1CCN(C(=O)c2cc3cc(Cl)ccc3[nH]2)CC1 [JNJ-7777120] : Intrinsic activity is -0.7

Value of measured Intrinsic activity for the entry CN(C)CCNC(=O)c1nc2cc(Cl)ccc2[nH]1 : -0.5

So, CN1CCN(C(=O)c2nc3ccc(Cl)cc3[nH]2)CC1 ? Its Intrinsic activity was -1

Record Intrinsic activity per entry; entries follow.
1. CN(C)CCNC(=O)c1cc2cc(Cl)ccc2[nH]1
2. CN1CCC(C(=O)c2cc3cc(Cl)ccc3[nH]2)CC1
3. CN1CCN(C(=O)c2cc3cc(Br)ccc3[nH]2)CC1

1. 0
2. -0.5
3. -0.7
